# assay_overview: Solubility determination (equilibrium solubility, 24 hrs stirring at room temperature, HPLC)
# Type: physicochemical
# experimental_conditions: pH of the filtrate after 24 hrs; pH 6.8, 50 mM phosphoric acid buffer
Counter-ions that a name gives are not always drawn.
value_type: pH24 hrs

| compound | measured |
| --- | --- |
| Cc1c(NC(=O)c2cc(C3CC3)c(CN3CCCC[C@H]3C(=O)O)cn2)cccc1-c1cccc(NC(=O)c2cc(C3CC3)c(CN3CCCC[C@H]3C(=O)O)cn2)c1C [free-form crystalline form F] | 6.93 |
| Cc1c(NC(=O)c2cc(C3CC3)c(CN3CCCC[C@H]3C(=O)O)cn2)cccc1-c1cccc(NC(=O)c2cc(C3CC3)c(CN3CCCC[C@H]3C(=O)O)cn2)c1C [crystalline form B of disodium salt anhydrate] | 7.03 |
| Cc1c(NC(=O)c2cc(C3CC3)c(CN3CCCC[C@H]3C(=O)O)cn2)cccc1-c1cccc(NC(=O)c2cc(C3CC3)c(CN3CCCC[C@H]3C(=O)O)cn2)c1C [free-form crystalline form C] | 6.89 |
| Cc1c(NC(=O)c2cc(C3CC3)c(CN3CCCC[C@H]3C(=O)O)cn2)cccc1-c1cccc(NC(=O)c2cc(C3CC3)c(CN3CCCC[C@H]3C(=O)O)cn2)c1C [free-form crystalline form D] | 6.90 |
| Cc1c(NC(=O)c2cc(C3CC3)c(CN3CCCC[C@H]3C(=O)O)cn2)cccc1-c1cccc(NC(=O)c2cc(C3CC3)c(CN3CCCC[C@H]3C(=O)O)cn2)c1C [crystalline form A of disodium salt hydrate] | 6.88 |
